The reported numbers originate from paper PMC3794980.

measurementTarget: DRB1*0101 (Homo sapiens, UniProt P01903+P01911, A100R/D57E/F55L/F60I/F76Y/I96L/L162R/M171V/P40L/Q125E/R42F/V115G/Y59C)
measurementDescription: biochemical
pIC50: −log10 of the molar value.
Binary call on pIC50: satisfied from 7 upward, not satisfied beneath that.

Some entries whose results are on file:
[
  {
    "compound": "CC[C@H](C)[C@H](NC(=O)[C@H](Cc1c[nH]c2ccccc12)NC(=O)[C@H](Cc1ccc(O)cc1)NC(=O)CNC(=O)[C@H](CCSC)NC(=O)[C@H](CC(=O)O)NC(=O)[C@H](C)NC(=O)[C@H](Cc1c[nH]cn1)NC(=O)[C@@H](NC(=O)[C@H](C)N)C(C)C)C(=O)N[C@@H](CCC(=O)O)C(=O)N[C@@H](CO)C(=O)N[C@@H](CCC(N)=O)C(=O)N[C@@H](CCCCN)C(=O)N[C@@H](CC(N)=O)C(=O)O [NS1 193-207]",
    "discreteLabel": "not satisfied"
  },
  {
    "compound": "CC[C@H](C)[C@H](NC(=O)[C@H](CC(C)C)NC(=O)[C@H](CCCCN)NC(=O)CN)C(=O)N[C@@H](Cc1c[nH]cn1)C(=O)N[C@@H](CCC(=O)O)C(=O)N[C@@H](Cc1c[nH]c2ccccc12)C(=O)N[C@@H](CS)C(=O)N[C@@H](CS)C(=O)N[C@@H](CCCNC(=N)N)C(=O)N[C@@H](CO)C(=O)N[C@@H](CS)C(=O)N[C@H](C(=O)N[C@@H](CC(C)C)C(=O)N1CCC[C@H]1C(=O)O)[C@@H](C)O [NS1 305-319]",
    "discreteLabel": "not satisfied"
  },
  {
    "compound": "CC(C)C[C@H](NC(=O)[C@H](C)NC(=O)[C@H](CCC(=O)O)NC(=O)[C@H](Cc1ccccc1)NC(=O)[C@H](CCC(=O)O)NC(=O)[C@H](CC(C)C)NC(=O)[C@H](Cc1ccc(O)cc1)NC(=O)[C@H](CCCNC(=N)N)NC(=O)[C@H](C)NC(=O)CNC(=O)[C@H](CC(C)C)NC(=O)[C@@H](N)Cc1c[nH]c2ccccc12)C(=O)NCC(=O)N[C@@H](Cc1ccccc1)C(=O)N[C@@H](CC(C)C)C(=O)N[C@@H](CC(N)=O)C(=O)N[C@@H](CCC(=O)O)C(=O)O [NS5 477-493]",
    "discreteLabel": "satisfied"
  },
  {
    "compound": "CC[C@H](C)[C@H](NC(=O)[C@H](C)NC(=O)[C@H](CC(N)=O)NC(=O)[C@H](C)N)C(=O)N[C@@H](Cc1ccccc1)C(=O)N[C@@H](CCCCN)C(=O)N[C@@H](CC(C)C)C(=O)N[C@H](C(=O)N[C@@H](Cc1ccc(O)cc1)C(=O)N[C@@H](CCC(N)=O)C(=O)N[C@@H](CC(N)=O)C(=O)N[C@@H](CCCCN)C(=O)N[C@H](C(=O)N[C@H](C(=O)N[C@@H](CCCCN)C(=O)N[C@H](C(=O)N[C@@H](CCC(N)=O)C(=O)O)C(C)C)C(C)C)C(C)C)[C@@H](C)O [NS5 564-580]",
    "discreteLabel": "satisfied"
  }
]

Does the reported pIC50 for CC[C@H](C)[C@H](NC(=O)[C@H](C)NC(=O)[C@H](CC(N)=O)NC(=O)[C@H](CO)NC(=O)[C@H](C)NC(=O)[C@H](CC(C)C)NC(=O)[C@H](CCCNC(=N)N)NC(=O)[C@H](CC(C)C)NC(=O)[C@H](CC(=O)O)NC(=O)[C@H](CCCNC(=N)N)NC(=O)[C@@H](N)CCCNC(=N)N)C(=O)N[C@@H](CS)C(=O)N[C@@H](CO)C(=O)N[C@@H](C)C(=O)N[C@H](C(=O)N1CCC[C@H]1C(=O)N[C@H](C(=O)O)C(C)C)C(C)C [NS5 769-785] fall at or above the 7 mark? satisfied

Does the reported pIC50 for CSCC[C@H](NC(=O)[C@@H](NC(=O)[C@H](CCC(N)=O)NC(=O)[C@H](Cc1ccccc1)NC(=O)[C@H](CC(N)=O)NC(=O)[C@H](CCCCN)NC(=O)[C@@H]1CCCN1C(=O)[C@@H](N)CC(N)=O)[C@@H](C)O)C(=O)N1CCC[C@H]1C(=O)NCC(=O)N[C@H](C(=O)N[C@@H](Cc1ccccc1)C(=O)N[C@@H](CCC(N)=O)C(=O)N[C@H](C(=O)N[C@H](C(=O)O)[C@@H](C)O)[C@@H](C)O)[C@@H](C)O [NS3 105-119] fall at or above the 7 mark? satisfied

Does the reported pIC50 for CC[C@H](C)[C@H](NC(=O)[C@H](C)NC(=O)[C@H](C)NC(=O)[C@H](C)NC(=O)[C@@H](N)CCC(=O)O)C(=O)N[C@@H](Cc1ccccc1)C(=O)N[C@@H](CCSC)C(=O)N[C@H](C(=O)N[C@@H](C)C(=O)N[C@H](C(=O)N1CCC[C@H]1C(=O)N1CCC[C@H]1C(=O)NCC(=O)N[C@H](C(=O)N[C@@H](C)C(=O)O)[C@@H](C)O)[C@@H](C)O)[C@@H](C)O [NS3 309-323] fall at or above the 7 mark? satisfied

Does the reported pIC50 for CSCC[C@H](NC(=O)[C@H](CC(C)C)NC(=O)[C@H](CCCNC(=N)N)NC(=O)[C@H](Cc1c[nH]cn1)NC(=O)[C@H](CC(=O)O)NC(=O)[C@H](CS)NC(=O)[C@H](CC(C)C)NC(=O)[C@H](CCC(N)=O)NC(=O)[C@@H](NC(=O)[C@H](Cc1ccc(O)cc1)NC(=O)[C@@H](NC(=O)[C@@H](N)CCC(=O)O)C(C)C)[C@@H](C)O)C(=O)N[C@@H](CO)C(=O)N[C@@H](C)C(=O)N[C@@H](C)C(=O)O [NS1 173-187] fall at or above the 7 mark? satisfied

---

measurementTarget: DRB5*0101 (Homo sapiens, UniProt P01903+Q30154)
measurementDescription: biochemical
Listed next: entries and their corresponding log10(IC50).
Plainly stated, the numbers are log10 of IC50 given in nM.

Known results for molecules:
[
  {
    "smilesRepresentation": "CC[C@H](C)[C@H](NC(=O)[C@@H](NC(=O)[C@@H](N)Cc1ccccc1)[C@@H](C)CC)C(=O)N[C@@H](CC(=O)O)C(=O)NCC(=O)N1CCC[C@H]1C(=O)N[C@@H](CC(N)=O)C(=O)N[C@H](C(=O)N1CCC[C@H]1C(=O)N[C@@H](CCC(=O)O)C(=O)N[C@@H](CS)C(=O)N1CCC[C@H]1C(=O)N[C@@H](CO)C(=O)N[C@@H](C)C(=O)N[C@@H](CO)C(=O)O)[C@@H](C)O",
    "log10(IC50)": 3.84
  },
  {
    "smilesRepresentation": "CC[C@H](C)[C@H](NC(=O)[C@H](Cc1ccc(O)cc1)NC(=O)CNC(=O)[C@H](CC(C)C)NC(=O)[C@H](CCCCN)NC(=O)[C@H](Cc1c[nH]cn1)NC(=O)[C@H](CC(C)C)NC(=O)CNC(=O)[C@H](CCC(=O)O)NC(=O)CNC(=O)[C@H](CCC(=O)O)NC(=O)[C@@H](NC(=O)CNC(=O)[C@H](CO)NC(=O)[C@H](Cc1ccc(O)cc1)NC(=O)[C@H](CO)NC(=O)[C@@H](N)CC(N)=O)C(C)C)C(=O)O",
    "log10(IC50)": 3.05
  },
  {
    "smilesRepresentation": "CC(C)C[C@H](NC(=O)[C@H](CCC(=O)O)NC(=O)[C@H](CCCCN)NC(=O)[C@@H](N)CCCNC(=N)N)C(=O)N[C@@H](CC(C)C)C(=O)N[C@H](C(=O)N[C@H](C(=O)N[C@@H](Cc1ccccc1)C(=O)N[C@@H](CCCCN)C(=O)N[C@@H](CC(N)=O)C(=O)N[C@@H](C)C(=O)N[C@@H](Cc1c[nH]cn1)C(=O)N[C@@H](C)C(=O)N[C@@H](CCCCN)C(=O)N[C@@H](CCCCN)C(=O)O)[C@@H](C)O)C(C)C",
    "log10(IC50)": 1.40
  }
]

Consider the additional molecule presented here.
Item `CC(C)C[C@H](NC(=O)[C@H](Cc1ccccc1)NC(=O)CN)C(=O)N[C@@H](CC(N)=O)C(=O)N[C@@H](CCC(=O)O)C(=O)N[C@@H](CC(=O)O)C(=O)N[C@@H](Cc1c[nH]cn1)C(=O)N[C@@H](Cc1c[nH]c2ccccc12)C(=O)N[C@@H](Cc1ccccc1)C(=O)N[C@@H](CO)C(=O)N[C@@H](CCCNC(=N)N)C(=O)N[C@@H](CCC(=O)O)C(=O)N[C@@H](CC(N)=O)C(=O)N[C@@H](CO)C(=O)N[C@@H](Cc1ccc(O)cc1)C(=O)N[C@@H](CO)C(=O)NCC(=O)O` was tested on DRB5*0101 (Homo sapiens, UniProt P01903+Q30154); the reported log10(IC50) is 2.97
